Every entry's value here was drawn from ChEMBL document CHEMBL2218924.

# measuredOn: Fibroblast growth factor receptor 4 (Homo sapiens) (UniProt P22455)
# Sequence (P22455 22-802 limits assumed): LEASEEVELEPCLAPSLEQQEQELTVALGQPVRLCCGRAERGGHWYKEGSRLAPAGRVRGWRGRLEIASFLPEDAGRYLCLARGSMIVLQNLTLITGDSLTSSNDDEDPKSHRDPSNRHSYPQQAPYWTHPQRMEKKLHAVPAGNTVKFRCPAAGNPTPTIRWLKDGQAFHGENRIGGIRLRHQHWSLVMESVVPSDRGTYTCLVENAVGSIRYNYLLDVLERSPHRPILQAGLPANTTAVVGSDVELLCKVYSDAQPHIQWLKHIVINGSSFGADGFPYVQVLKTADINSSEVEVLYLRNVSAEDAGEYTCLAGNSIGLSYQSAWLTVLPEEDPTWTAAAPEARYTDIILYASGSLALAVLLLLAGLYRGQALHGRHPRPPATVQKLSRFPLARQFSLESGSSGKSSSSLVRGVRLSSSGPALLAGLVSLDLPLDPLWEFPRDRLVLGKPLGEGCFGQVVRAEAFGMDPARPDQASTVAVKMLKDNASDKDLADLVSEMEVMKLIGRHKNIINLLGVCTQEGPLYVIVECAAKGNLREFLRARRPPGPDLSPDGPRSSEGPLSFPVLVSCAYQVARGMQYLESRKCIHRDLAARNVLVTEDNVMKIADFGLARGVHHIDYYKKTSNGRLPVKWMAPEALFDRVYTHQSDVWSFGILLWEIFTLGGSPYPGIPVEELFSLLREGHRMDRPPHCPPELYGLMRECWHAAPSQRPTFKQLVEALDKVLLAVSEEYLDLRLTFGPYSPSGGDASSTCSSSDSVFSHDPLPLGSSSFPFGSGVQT
# conditionContext: at 1 µM
readoutKind: residual activity (%)
Answer in %, number only, no unit symbol.

Value lookup for residual activity; key = COc1ccc(OC)c2c(=S)c3ccccc3[nH]c12
112

Value lookup for residual activity; key = N#C/C(=C(\N)Sc1ccc(N)cc1)c1ccccc1C(F)(F)F
86

Value lookup for residual activity; key = O=C1NC(=O)/C(=C/c2ccc3c(c2)OC(F)(F)O3)S1
116

Value lookup for residual activity; key = Nc1cccc(-c2cc3c(Oc4cccc(O)c4)ncnc3[nH]2)c1
72

Value lookup for residual activity; key = O=C1NC(=O)/C(=C\c2ccc3nccnc3c2)S1
119

Value lookup for residual activity; key = Oc1n[nH]c2nnc(-c3c(-c4ccccc4)nn4ccccc34)cc12
115

Value lookup for residual activity; key = CO[C@H]1[C@@H](OC)C[C@H](C)[C@@H](OC)C2=CC(=O)C=C(NC(=O)/C(C)=C/C=C/[C@H](OC)[C@@H](OC(N)=O)/C(C)=C/[C@@H]1C)C2=O
109

Value lookup for residual activity; key = CN(C)CCCn1cc(C2=C(c3c[nH]c4ccccc34)C(=O)NC2=O)c2ccccc21
121

Value lookup for residual activity; key = CN(C)c1ccc(/C=C2\C(=O)Nc3ccccc32)cc1
122

Value lookup for residual activity; key = Nc1n[nH]c2nnc(-c3c(-c4ccccc4)nn4ccccc34)cc12
101

Value lookup for residual activity; key = Nc1ccc2ncnc(NCCc3ccc(Oc4ccccc4)cc3)c2c1
107

Value lookup for residual activity; key = CO[C@@H]1[C@H](N(C)C(=O)c2ccccc2)C[C@H]2O[C@]1(C)n1c3ccccc3c3c4c(c5c6ccccc6n2c5c31)C(=O)NC4
71

Value lookup for residual activity; key = CO[C@H]1C[C@@H]2CC[C@@H](C)[C@@](O)(O2)C(=O)C(=O)N2CCCC[C@H]2C(=O)O[C@H]([C@H](C)C[C@@H]2CC[C@@H](O)[C@H](OC)C2)CC(=O)[C@H](C)/C=C(\C)[C@@H](O)[C@@H](OC)C(=O)[C@H](C)C[C@H](C)/C=C/C=C/C=C/1C
138

Value lookup for residual activity; key = Oc1ccc(-c2nc(-c3ccc(F)cc3)c(-c3ccncc3)[nH]2)cc1
114

Value lookup for residual activity; key = O=C1c2ccccc2-[n+]2ccc3c([nH]c4ccccc43)c21
109

Value lookup for residual activity; key = Cc1nc(-c2ccccc2)c(-c2ccncc2)o1
109

Value lookup for residual activity; key = CCN(CC)CCCCN1c2ccccc2Oc2ccc(Cl)cc21
129

Value lookup for residual activity; key = CCC(=O)Nc1ccc2ncnc(Nc3cccc(Br)c3)c2c1
120

Value lookup for residual activity; key = Oc1c2ccccc2c2c3c(cccc13)N=N2
110

Value lookup for residual activity; key = CC#CC(=O)Nc1cc2c(Nc3ccc(F)c(Cl)c3)ncnc2cn1
116

====

# measuredOn: Tyrosine-protein kinase CSK (Homo sapiens) (UniProt P41240)
# Sequence (P41240 2-450 limits assumed): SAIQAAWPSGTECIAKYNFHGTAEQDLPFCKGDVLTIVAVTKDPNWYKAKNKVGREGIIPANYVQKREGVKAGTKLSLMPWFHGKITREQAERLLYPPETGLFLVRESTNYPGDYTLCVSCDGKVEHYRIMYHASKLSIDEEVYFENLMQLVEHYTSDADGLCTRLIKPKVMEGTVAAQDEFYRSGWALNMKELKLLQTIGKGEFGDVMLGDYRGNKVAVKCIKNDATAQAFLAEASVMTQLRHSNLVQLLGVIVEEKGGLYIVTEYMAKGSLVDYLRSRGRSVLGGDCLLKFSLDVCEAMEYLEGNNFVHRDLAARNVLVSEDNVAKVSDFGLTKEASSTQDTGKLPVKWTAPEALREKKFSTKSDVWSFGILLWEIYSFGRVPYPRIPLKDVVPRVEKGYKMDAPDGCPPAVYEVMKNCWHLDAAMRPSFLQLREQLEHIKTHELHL
# conditionContext: at 1 µM
readoutKind: residual activity (%)
Answer in %, number only, no unit symbol.

Value lookup for residual activity; key = O=C1Nc2cc(Br)ccc2/C1=C1/Nc2ccccc2/C1=N\O
94

Value lookup for residual activity; key = Cc1ccc(S(=O)(=O)/C=C/C#N)cc1
116

Value lookup for residual activity; key = N#C/C(=C(\N)Sc1ccc(N)cc1)c1ccccc1C(F)(F)F
106

Value lookup for residual activity; key = O=C1c2ccccc2-[n+]2ccc3c([nH]c4ccccc43)c21
86

Value lookup for residual activity; key = O=Nc1c(-c2c(O)[nH]c3ccccc23)[nH]c2ccccc12
101

Value lookup for residual activity; key = NC(=O)c1ccc2[nH]c(-c3ccc(Oc4ccc(Cl)cc4)cc3)nc2c1
105

Value lookup for residual activity; key = CNc1cc2c(Nc3cccc(Br)c3)ncnc2cn1
109

Value lookup for residual activity; key = COc1ccc(S(=O)(=O)N(CCO)c2ccccc2CN(C)C/C=C/c2ccc(Cl)cc2)cc1
115

Value lookup for residual activity; key = Oc1c2ccccc2c2c3c(cccc13)N=N2
105

Value lookup for residual activity; key = Ic1cccc(CSc2nnc(-c3ccncc3)o2)c1
104

Value lookup for residual activity; key = O=C1NC(=O)/C(=C/c2ccc3c(c2)OC(F)(F)O3)S1
121

====

# measuredOn: Serine/threonine-protein kinase WNK2 (Homo sapiens) (UniProt Q9Y3S1)
# Sequence (Q9Y3S1 whole entry): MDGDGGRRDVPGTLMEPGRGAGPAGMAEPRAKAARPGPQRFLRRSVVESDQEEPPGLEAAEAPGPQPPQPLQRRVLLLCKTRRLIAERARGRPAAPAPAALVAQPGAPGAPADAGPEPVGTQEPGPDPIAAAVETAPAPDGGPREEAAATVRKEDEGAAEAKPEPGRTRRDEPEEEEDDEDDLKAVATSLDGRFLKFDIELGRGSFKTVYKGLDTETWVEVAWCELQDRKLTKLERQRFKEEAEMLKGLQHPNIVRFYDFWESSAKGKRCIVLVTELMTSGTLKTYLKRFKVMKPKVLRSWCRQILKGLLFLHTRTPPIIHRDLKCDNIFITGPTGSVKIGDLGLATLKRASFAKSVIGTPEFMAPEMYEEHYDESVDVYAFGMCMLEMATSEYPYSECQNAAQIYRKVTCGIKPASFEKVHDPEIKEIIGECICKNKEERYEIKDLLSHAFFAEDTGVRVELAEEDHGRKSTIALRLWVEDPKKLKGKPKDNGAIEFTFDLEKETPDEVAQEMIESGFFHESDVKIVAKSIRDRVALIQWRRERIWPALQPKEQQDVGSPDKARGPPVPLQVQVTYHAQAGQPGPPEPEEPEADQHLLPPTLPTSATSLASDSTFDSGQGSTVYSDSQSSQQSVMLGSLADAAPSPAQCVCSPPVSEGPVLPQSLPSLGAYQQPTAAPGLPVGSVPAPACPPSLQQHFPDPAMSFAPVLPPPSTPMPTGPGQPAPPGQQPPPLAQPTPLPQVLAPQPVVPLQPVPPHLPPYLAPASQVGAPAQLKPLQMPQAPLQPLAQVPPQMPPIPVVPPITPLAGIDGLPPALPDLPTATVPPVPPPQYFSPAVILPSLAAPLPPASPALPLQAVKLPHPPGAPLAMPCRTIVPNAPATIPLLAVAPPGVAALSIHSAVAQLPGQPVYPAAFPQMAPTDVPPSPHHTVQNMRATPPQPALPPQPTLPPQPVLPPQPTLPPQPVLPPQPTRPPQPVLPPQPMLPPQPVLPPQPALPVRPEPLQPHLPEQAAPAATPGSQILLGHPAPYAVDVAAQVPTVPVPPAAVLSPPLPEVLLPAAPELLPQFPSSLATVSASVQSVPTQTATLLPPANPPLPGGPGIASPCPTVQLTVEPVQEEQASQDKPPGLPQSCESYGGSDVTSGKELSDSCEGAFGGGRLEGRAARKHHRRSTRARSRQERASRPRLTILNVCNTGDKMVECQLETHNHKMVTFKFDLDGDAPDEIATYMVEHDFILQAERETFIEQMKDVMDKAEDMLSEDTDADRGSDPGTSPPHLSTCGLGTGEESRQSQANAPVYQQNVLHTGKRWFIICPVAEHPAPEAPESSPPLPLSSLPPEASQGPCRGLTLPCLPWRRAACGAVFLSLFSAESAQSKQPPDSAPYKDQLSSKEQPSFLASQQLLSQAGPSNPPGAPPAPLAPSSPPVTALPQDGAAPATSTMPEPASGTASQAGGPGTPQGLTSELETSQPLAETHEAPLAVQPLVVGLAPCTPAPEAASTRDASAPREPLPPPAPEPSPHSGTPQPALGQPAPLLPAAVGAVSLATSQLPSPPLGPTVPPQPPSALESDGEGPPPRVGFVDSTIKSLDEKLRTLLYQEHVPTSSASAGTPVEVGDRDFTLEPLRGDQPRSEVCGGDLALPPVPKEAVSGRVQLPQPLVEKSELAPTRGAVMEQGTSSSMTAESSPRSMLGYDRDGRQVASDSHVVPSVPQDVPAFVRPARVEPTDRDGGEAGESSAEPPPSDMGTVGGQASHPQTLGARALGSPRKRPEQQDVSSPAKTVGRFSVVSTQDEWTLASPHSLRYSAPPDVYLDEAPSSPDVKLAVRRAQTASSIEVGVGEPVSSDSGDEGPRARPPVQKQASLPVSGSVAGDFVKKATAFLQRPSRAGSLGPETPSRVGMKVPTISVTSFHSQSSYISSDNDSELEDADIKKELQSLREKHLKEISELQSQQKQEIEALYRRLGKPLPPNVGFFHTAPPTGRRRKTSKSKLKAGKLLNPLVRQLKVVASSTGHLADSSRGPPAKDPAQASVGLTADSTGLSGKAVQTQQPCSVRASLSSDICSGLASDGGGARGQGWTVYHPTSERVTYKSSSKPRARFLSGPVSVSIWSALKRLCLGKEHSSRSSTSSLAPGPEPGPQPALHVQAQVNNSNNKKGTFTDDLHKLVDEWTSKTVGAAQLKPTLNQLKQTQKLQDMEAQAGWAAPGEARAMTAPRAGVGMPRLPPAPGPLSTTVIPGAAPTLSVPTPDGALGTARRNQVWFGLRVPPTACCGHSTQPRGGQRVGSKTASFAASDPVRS
# conditionContext: at 1 µM
# Description: Millipore: Percentage of residual kinase activity of WNK2 at 1uM relative to control. Control inhibitor: Phosphoric acid* at 0.3uM. Buffer: 8 mM MOPS pH 7.0, 0.2 mM EDTA
Think of 90% as a floor: if residual activity stands on it or above, it is satisfied; beneath it, not satisfied.

Given O=C1Nc2ccccc2/C1=C1/Nc2ccccc2/C1=N\OCCC(O)CO (stereo unspecified) , state whether its residual activity is at least 90%.
not satisfied

Given COc1ccc(S(=O)(=O)N(CCO)c2ccccc2CN(C)C/C=C/c2ccc(Cl)cc2)cc1 , state whether its residual activity is at least 90%.
satisfied

Given CCOc1cc2ncnc(Nc3cccc(Br)c3)c2cc1OCC , state whether its residual activity is at least 90%.
satisfied

Given Cc1nc(-c2ccccc2)c(-c2ccncc2)o1 , state whether its residual activity is at least 90%.
satisfied

Given Cc1cc2ncc(-c3ccccc3)nc2cc1C , state whether its residual activity is at least 90%.
satisfied

Given Cc1ccc(S(=O)(=O)/C=C/C#N)cc1 , state whether its residual activity is at least 90%.
satisfied

Given Cn1cnc2cc3c(Nc4cccc(Br)c4)ncnc3cc21 , state whether its residual activity is at least 90%.
satisfied

Given Cc1cc(Nc2nc(-c3ccccc3)nc3ccccc23)n[nH]1 , state whether its residual activity is at least 90%.
not satisfied

Given COc1ccc(C(=O)Nc2sc3c(c2C(N)=O)CCCC3)cc1OC , state whether its residual activity is at least 90%.
satisfied

====

Would you kindly list residual activity for each of these molecules?
# measuredOn: Ribosomal protein S6 kinase alpha-4 (Homo sapiens) (UniProt O75676)
# Sequence (O75676 whole entry, looked up): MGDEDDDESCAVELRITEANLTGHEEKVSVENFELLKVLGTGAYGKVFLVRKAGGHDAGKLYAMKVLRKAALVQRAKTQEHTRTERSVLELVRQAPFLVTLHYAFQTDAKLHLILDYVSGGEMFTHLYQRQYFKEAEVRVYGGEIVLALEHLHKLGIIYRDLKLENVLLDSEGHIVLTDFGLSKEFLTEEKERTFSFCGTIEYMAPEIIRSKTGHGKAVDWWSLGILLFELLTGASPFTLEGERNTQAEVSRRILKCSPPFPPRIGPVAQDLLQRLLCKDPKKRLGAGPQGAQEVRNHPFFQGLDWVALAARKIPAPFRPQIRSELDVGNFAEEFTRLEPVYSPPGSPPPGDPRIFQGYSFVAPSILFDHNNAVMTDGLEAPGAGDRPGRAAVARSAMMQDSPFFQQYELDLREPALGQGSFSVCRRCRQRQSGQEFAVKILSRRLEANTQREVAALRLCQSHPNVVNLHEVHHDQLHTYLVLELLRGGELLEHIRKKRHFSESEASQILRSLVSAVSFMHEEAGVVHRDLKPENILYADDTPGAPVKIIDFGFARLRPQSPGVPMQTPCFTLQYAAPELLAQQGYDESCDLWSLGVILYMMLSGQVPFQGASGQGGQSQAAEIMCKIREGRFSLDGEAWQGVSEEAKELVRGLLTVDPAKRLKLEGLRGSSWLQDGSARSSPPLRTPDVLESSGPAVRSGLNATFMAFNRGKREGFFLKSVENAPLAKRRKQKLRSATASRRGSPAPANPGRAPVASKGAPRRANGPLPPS
# conditionContext: at 10 µM
Answer in %, number only, no unit symbol.

Value lookup for residual activity; key = CC(C)n1cnc2c(NCc3ccccc3)nc(NCCCO)nc21
97

Value lookup for residual activity; key = O=C(Nc1cccc(Nc2nccc(Nc3cccc(C(F)(F)F)c3)n2)c1)C1CC1
89

Value lookup for residual activity; key = O=C1NC(=O)c2c1c1c3ccccc3[nH]c1c1[nH]c3cc(Br)ccc3c21
76

Value lookup for residual activity; key = CC(=O)O/N=C1\C(=C2\C(=O)Nc3cc(Br)ccc32)Nc2ccccc21
74

Value lookup for residual activity; key = O=C1Nc2ccc(Br)cc2/C1=C\c1cc2c([nH]1)CCCC2
99

Value lookup for residual activity; key = CN(C)CCCn1cc(C2=C(c3c[nH]c4ccccc34)C(=O)NC2=O)c2ccccc21
3

Value lookup for residual activity; key = CO[C@H]1C[C@@H]2CC[C@@H](C)[C@@](O)(O2)C(=O)C(=O)N2CCCC[C@H]2C(=O)O[C@H]([C@H](C)C[C@@H]2CC[C@@H](O)[C@H](OC)C2)CC(=O)[C@H](C)/C=C(\C)[C@@H](O)[C@@H](OC)C(=O)[C@H](C)C[C@H](C)/C=C/C=C/C=C/1C
105

Value lookup for residual activity; key = O=C1NC(=O)c2cc(Nc3ccc(F)cc3)c(Nc3ccc(F)cc3)cc21
91

Value lookup for residual activity; key = CCC(=O)Nc1ccc2ncnc(Nc3cccc(Br)c3)c2c1
116

Value lookup for residual activity; key = c1ccc2c(-c3ccncc3)c[nH]c2c1
54

Value lookup for residual activity; key = O=C1NC(=O)/C(=C/c2ccc3c(c2)OC(F)(F)O3)S1
97

Value lookup for residual activity; key = O=C1Nc2ccccc2/C1=C1/Nc2ccccc2/C1=N\OCCC(O)CO (configuration not stated)
2

Value lookup for residual activity; key = CNc1cc2c(Nc3cccc(Br)c3)ncnc2cn1
109

Value lookup for residual activity; key = COc1cc2ncnc(N3CCN(C(=O)Nc4ccc(Oc5ccccc5)cc4)CC3)c2cc1OC
123

Value lookup for residual activity; key = COc1ccc(S(=O)(=O)N(CCO)c2ccccc2CN(C)C/C=C/c2ccc(Cl)cc2)cc1
85

Value lookup for residual activity; key = Cn1nc2c3c(cccc31)C(=O)c1ccccc1-2
79

Value lookup for residual activity; key = N#Cc1cnc2cnc(NCc3cccnc3)cc2c1Nc1ccc(F)c(Cl)c1
2

Value lookup for residual activity; key = CCN(CC)CCCCN1c2ccccc2Oc2ccc(Cl)cc21
116

Value lookup for residual activity; key = Nc1nc(Nc2ccc(S(N)(=O)=O)cc2)nn1C(=S)Nc1c(F)cccc1F
21

Value lookup for residual activity; key = COc1cc2ncnc(Nc3ccc(O)c(Br)c3)c2cc1OC
72

Value lookup for residual activity; key = CCOc1cc2ncnc(Nc3cccc(Br)c3)c2cc1OCC
88

Value lookup for residual activity; key = CC[n+]1c(/C=C/N(C)c2ccccc2)n(-c2ccccc2)c2ccc(-c3nc4ccccc4s3)cc21
96

====

# measuredOn: Muscle, skeletal receptor tyrosine-protein kinase (Homo sapiens)
# conditionContext: at 10 µM
Think of 80% as a floor: if residual activity stands on it or above, it is y; beneath it, n.

Given Cc1cncc2cccc(S(=O)(=O)N3CCCN(C(=O)CN)C[C@H]3C)c12 , state whether its residual activity is at least 80%.
n

Given Cn1cnc2cc3c(Nc4cccc(Br)c4)ncnc3cc21 , state whether its residual activity is at least 80%.
y

Given CCN(CC)C(=O)c1ccc(Nc2nc(OCC3CCCCC3)c3nc[nH]c3n2)cc1 , state whether its residual activity is at least 80%.
n

Given CO[C@@H]1[C@H](N(C)C(=O)c2ccccc2)C[C@H]2O[C@]1(C)n1c3ccccc3c3c4c(c5c6ccccc6n2c5c31)C(=O)NC4 , state whether its residual activity is at least 80%.
n

Given COc1ccc(OC)c2c(=S)c3ccccc3[nH]c12 , state whether its residual activity is at least 80%.
y

Given CNc1cc2c(Nc3cccc(Br)c3)ncnc2cn1 , state whether its residual activity is at least 80%.
y

Given O=[N+]([O-])c1ccc(-c2nc(-c3ccc(F)cc3)c(-c3ccncc3)[nH]2)cc1 , state whether its residual activity is at least 80%.
y
